- Test system: SK-MEL-28 melanoma
- assayOverview: NCI tumour cell line growth inhibition, 48 h
Where a SMILES comes first, the peptide text is derived from it. The star is where a group is joined. Boc = CC(C)(C)OC(=O)*
A collection of compounds and their measured TGI

{"compound": "CCOC(=O)C1=C(N)CCC1C (stereo unspecified)", "relation": ">", "TGI [µM]": 100}
{"compound": "COc1ccc2nc3c([N+](=O)[O-])ccc4c3c(c2c1)N(CCCN(C)C)C(=S)N4CCCN(C)C", "relation": "=", "TGI [µM]": 37.4}
{"compound": "NC(=O)c1c2c(n3ccccc13)C(=O)c1ccccc1C2=O", "relation": ">", "TGI [µM]": 100}
{"compound": "O=C1OC(c2cccc(C(F)(F)F)c2)c2ccc3ccccc3c21 (stereo unspecified)", "relation": ">", "TGI [µM]": 100}
{"compound": "CC(NC(=O)OC(C)(C)C)C(=O)NC(Cc1ccccc1)C(=O)NCC(=O)O (stereo not drawn) (Boc-Ala-Phe-Gly-OH; configuration not given here)", "relation": ">", "TGI [µM]": 100}
{"compound": "CCCCCCCCCCCc1noc2c1C(=O)C(O)CC2 (stereo unspecified)", "relation": "=", "TGI [µM]": 75.2}
{"compound": "COCCCN(Cc1cc(OC)c(OC)c(OC)c1)C(=S)Nc1cccc(Cl)c1", "relation": "=", "TGI [µM]": 85.1}
{"compound": "Cc1nnc(N)nc1/C=C\\c1ccc(N(C)C)cc1", "relation": ">", "TGI [µM]": 100}
{"compound": "CCCCCCCCCCCCCCCCCCNc1ccn(C2OC(CO)C(OP(=O)(O)OCC(COP(=O)(O)OCC3OC(n4cc(F)c(NCCCCCCCCCCCCCCCCCC)nc4=O)CC3O)OC(=O)CCCCCCCCCCCCCCC)C2O)c(=O)n1 (stereo unspecified)", "relation": ">", "TGI [µM]": 100}
{"compound": "CN(C)c1ccc(/C=c2/c3ccccc3n3c2cc(-c2ccc(Cl)cc2)[n+]3C)cc1", "relation": "=", "TGI [µM]": 1.9}
{"compound": "CCc1c2c(nc3ccc(OC(=O)NCc4ccc(B5OC(C)(C)C(C)(C)O5)cc4)cc13)-c1cc3c(c(=O)n1C2)COC(=O)[C@]3(O)CC", "relation": "=", "TGI [µM]": 8.9}
